System: MYB mRNA
Assay: Splicing RT-qPCR assay, MYB canonical (CJ) and alternative (AJ) junction mRNA
Format: cell-based, human
Settings: Homo sapiens, 24 h, A673 or K562 cells, 24 hours compound treatment, RT-qPCR; read-out: MYB AJ (AC50, increase in alternative junction mRNA)
AC50 overview
ATTRIBUTE_MEASURED: AC50

INSERT INTO measurements (molecule, attribute_measured, recorded_measurement) VALUES
  ('CCn1cc2c(N3CC[C@@H](NC)C3)cc(F)c(C(=O)Nc3cc(F)c4nc(C)cn4c3)c2n1', 'AC50', '< 100 nM'),
  ('CCn1cc2c(N3CCN4CCOC[C@H]4C3)ccc(C(=O)Nc3cc(F)c4nc(C)cn4c3)c2n1', 'AC50', '1000 to 10000 nM'),
  ('CO[C@H]1C[C@H](n2cc3c(N4CCNCC4)ccc(C(=O)Nc4cc(F)c5nc(C)cn5c4)c3n2)C1', 'AC50', '> 10000 nM'),
  ('CCn1cc2c(C3CCNC3)ccc(C(=O)Nc3cc(F)c4nccn4c3)c2n1 (stereo not shown)', 'AC50', '1000 to 10000 nM'),
  ('Cc1cn2cc(NC(=O)c3ccc(N4CC5(CN(C)C5)C4)c4cn(C)nc34)cc(F)c2n1', 'AC50', '< 100 nM'),
  ('Cn1cc2c(N3CCNCC3)ccc(C(=O)Nc3cc(F)c4nc(CO)cn4c3)c2n1', 'AC50', '1000 to 10000 nM'),
  ('CNC1CCN(c2ccc(C(=O)Nc3cc(F)c4nc(C)cn4c3)c3nn(C)cc23)C1 (stereo in doubt) [Compound 387]', 'AC50', '< 100 nM'),
  ('Cc1cc2c(N3CCNCC3)ccc(C(=O)Nc3cc(F)c4cn(C)nc4c3)c2o1', 'AC50', '> 10000 nM'),
  ('Cc1cn2cc(NC(=O)c3ccc(N4CCC(N(C)C)C4)c4cn(C)nc34)cc(F)c2n1 (stereo not shown)', 'AC50', '< 100 nM'),
  ('CN[C@@H]1CCN(c2ccc(C(=O)Nc3cn4cc(C)nc4c(OC4CC4)n3)c3nn(C)cc23)C1', 'AC50', '100 to 1000 nM'),
  ('CCn1cc2c(N3CCC(C)(NC4CC4)CC3)ccc(C(=O)Nc3cc(F)c4nc(C)cn4c3)c2n1', 'AC50', '< 100 nM'),
  ('Cc1cn2cc(NC(=O)c3ccc(N4CCNCC4)c4cn(CCF)nc34)cc(F)c2n1', 'AC50', '100 to 1000 nM'),
  ('COc1nc(NC(=O)c2ccc(N3CCNCC3)c3cn(C)nc23)cc2oc(C)nc12', 'AC50', '< 100 nM'),
  ('CN1CCN(c2ccc(C(=O)Nc3cc(F)c4nc(CO)oc4c3)c3nn(C)cc23)CC1', 'AC50', '> 10000 nM'),
  ('Cc1cn2cc(NC(=O)c3ccc(N4CCNC(C)(C)C4)c4cc(C)oc34)cc(F)c2n1', 'AC50', '100 to 1000 nM'),
  ('CCN(c1ccc(C(=O)Nc2cc(F)c3nc(C)cn3c2)c2nn(C)cc12)C1CCNCC1', 'AC50', '100 to 1000 nM');
